# Subject Of Test: MLL1 core complex (MLL1/WDR5/RbBP5/ASH2L) (Homo sapiens, UniProt P61964)
# Assay Explanation: In vitro H3K4 histone methyltransferase
Peptide text beside a SMILES is read from it.
Recorded Endpoint: IC50 (µM)
Return type: number; implicit unit µM.

Problem: Sample CC(=O)N[C@@H](C)C(=O)N[C@@H](CCCNC(=N)N)C(=O)N[C@@H](C)C(N)=O [ARA, Ac-ARA-NH2] (Ac-Ala-Arg-Ala-NH2) — what was its IC50?
Solution: 141

----------
pIC50: −log10 of the molar value. Peptide text beside a SMILES is read from it.
Entries with their measured pIC50, system WDR5 (Homo sapiens, UniProt P61964):

Known results for compounds:
Problem: I'm curious: which pIC50 was measured for CC(=O)N[C@@H](C)C(=O)N[C@@H](CCCN)C(=O)N[C@@H](C)C(N)=O tested on WDR5 (Homo sapiens, UniProt P61964)?
Solution: < 3.52

Problem: I'm curious: which pIC50 was measured for CCCC[C@H](NC(=O)[C@H](C)NC(C)=O)C(=O)N[C@@H](C)C(N)=O tested on WDR5 (Homo sapiens, UniProt P61964)?
Solution: < 3.52

Now, please, on to the next compound.
Problem: I'm curious: which pIC50 was measured for CC(=O)N[C@@H](C)C(=O)N[C@@H](CCCCN)C(=O)N[C@@H](C)C(N)=O [Compound 2c] (Ac-Ala-Lys-Ala-NH2) tested on WDR5 (Homo sapiens, UniProt P61964)?
Solution: < 3.52

----------
# Subject Of Test: WDR5 (Homo sapiens, UniProt P61964)
# Assay Explanation: Fluorescence-polarization
# Assay type: binding
# Recorded Conditions: relative to ARA peptide
Peptide text beside a SMILES is read from it.
This section presents compounds with their documented improvement in binding affinity to WDR5 (times more potent) compared to ARA (Ac-ARA-NH2) values.
Would you mind answering with just the numeric figure?

Problem: Sample CC[C@H](NC(=O)[C@H](CCCNC(=N)N)NC(=O)[C@H](C)NC(C)=O)C(N)=O [Compound 3b] — what was its improvement in binding affinity to WDR5 (times more potent) compared to ARA (Ac-ARA-NH2)?
Solution: 20

New cases:
Problem: Sample CC(=O)N[C@@H](C)C(=O)N[C@@H](CCCNC(=N)N)C(=O)N[C@H](C(N)=O)[C@@H](C)O [Compound 3i] (Ac-Ala-Arg-Thr-NH2) — what was its improvement in binding affinity to WDR5 (times more potent) compared to ARA (Ac-ARA-NH2)?
Solution: 5

Problem: Sample CC(=O)N[C@@H](C)C(=O)N[C@@H](CCCNC(=N)N)C(=O)N[C@H](C(N)=O)C(C)C [Compound 3c] (Ac-Ala-Arg-Val-NH2) — what was its improvement in binding affinity to WDR5 (times more potent) compared to ARA (Ac-ARA-NH2)?
Solution: 5

Problem: Sample CC[C@H](NC(C)=O)C(=O)N[C@@H](CCCNC(=N)N)C(=O)N[C@@H](C)C(N)=O [Compound 1b] — what was its improvement in binding affinity to WDR5 (times more potent) compared to ARA (Ac-ARA-NH2)?
Solution: 2

Problem: Sample CC(=O)N[C@H](C(=O)N[C@@H](CCCNC(=N)N)C(=O)N[C@@H](C)C(N)=O)C(C)C [Compound 1c] (Ac-Val-Arg-Ala-NH2) — what was its improvement in binding affinity to WDR5 (times more potent) compared to ARA (Ac-ARA-NH2)?
Solution: 2

----------
# Subject Of Test: UniProt:P61964
# Assay Explanation: Fluorescence-polarization
# Format: binding
# Recorded Conditions: relative to ARA peptide
Peptide text beside a SMILES is read from it.
Recorded Endpoint: decrease in binding affinity to WDR5 (times) compared to ARA (Ac-ARA-NH2)
Would you mind answering with just the numeric figure?

Problem: Sample CC(=O)N[C@H](C(=O)N[C@@H](CCCNC(=N)N)C(=O)N[C@@H](C)C(N)=O)[C@@H](C)O [Compound 1j] (Ac-Thr-Arg-Ala-NH2) — what was its decrease in binding affinity to WDR5 (times) compared to ARA (Ac-ARA-NH2)?
Solution: 5

New cases:
Problem: Sample CC(=O)N[C@@H](CO)C(=O)N[C@@H](CCCNC(=N)N)C(=O)N[C@@H](C)C(N)=O [Compound 1i] (Ac-Ser-Arg-Ala-NH2) — what was its decrease in binding affinity to WDR5 (times) compared to ARA (Ac-ARA-NH2)?
Solution: 5

Problem: Sample CC(=O)N[C@@H](C)C(=O)N[C@@H](CCCNC(=N)N)C(=O)N[C@@H](CO)C(N)=O [Compound 3h] (Ac-Ala-Arg-Ser-NH2) — what was its decrease in binding affinity to WDR5 (times) compared to ARA (Ac-ARA-NH2)?
Solution: 3

Problem: Sample CC(=O)N[C@@H](CS)C(=O)N[C@@H](CCCNC(=N)N)C(=O)N[C@@H](C)C(N)=O [Compound 1d] (Ac-Cys-Arg-Ala-NH2) — what was its decrease in binding affinity to WDR5 (times) compared to ARA (Ac-ARA-NH2)?
Solution: 3

----------
# Subject Of Test: WDR5 (Homo sapiens, UniProt P61964)
# Assay Explanation: Fluorescence-polarization
# Assay type: binding
# Recorded Conditions: FP-based competitive binding
Recorded Endpoint: binding to WDR5, result in words

Problem: Sample CCCC[C@H](NC(=O)[C@H](C)NC(C)=O)C(=O)N[C@@H](C)C(N)=O — what was its binding to WDR5, result in words?
Solution: complete loss of binding

Problem: Sample CC(=O)N[C@@H](C)C(=O)N[C@@H](CCCN)C(=O)N[C@@H](C)C(N)=O — what was its binding to WDR5, result in words?
Solution: complete loss of binding

----------
# Subject Of Test: UniProtKB P61964
# Assay Explanation: Fluorescence-polarization
# Format: binding
# Recorded Conditions: relative to ARA peptide
Peptide text beside a SMILES is read from it.
This section presents compounds with their documented decrease in binding affinity to WDR5 (times) compared to ARA (Ac-ARA-NH2) values.

Known results for compounds:
Problem: I'm curious: which decrease in binding affinity to WDR5 (times) compared to ARA (Ac-ARA-NH2) was measured for CC(=O)N[C@@H](Cc1ccccc1)C(=O)N[C@@H](CCCNC(=N)N)C(=O)N[C@@H](C)C(N)=O [Compound 1h] (Ac-Phe-Arg-Ala-NH2) tested on UniProtKB P61964?
Solution: 3–6

Problem: I'm curious: which decrease in binding affinity to WDR5 (times) compared to ARA (Ac-ARA-NH2) was measured for CC(=O)N[C@@H](C)C(=O)N[C@@H](CCCNC(=N)N)C(=O)N[C@@H](CCC(=O)O)C(N)=O [Compound 3j] (Ac-Ala-Arg-Glu-NH2) tested on UniProtKB P61964?
Solution: > 100

New cases:
Problem: I'm curious: which decrease in binding affinity to WDR5 (times) compared to ARA (Ac-ARA-NH2) was measured for CC(=O)N[C@@H](C)C(=O)N[C@@H](CCCNC(=N)N)C(=O)NCC(N)=O [Compound 3a] (Ac-Ala-Arg-Gly-NH2) tested on UniProtKB P61964?
Solution: > 10

Problem: I'm curious: which decrease in binding affinity to WDR5 (times) compared to ARA (Ac-ARA-NH2) was measured for CC(=O)NCC(=O)N[C@@H](CCCNC(=N)N)C(=O)N[C@@H](C)C(N)=O [Compound 1a] (Ac-Gly-Arg-Ala-NH2) tested on UniProtKB P61964?
Solution: > 100

Problem: I'm curious: which decrease in binding affinity to WDR5 (times) compared to ARA (Ac-ARA-NH2) was measured for CC(=O)N[C@@H](Cc1c[nH]cn1)C(=O)N[C@@H](CCCNC(=N)N)C(=O)N[C@@H](C)C(N)=O [Compound 1g] (Ac-His-Arg-Ala-NH2) tested on UniProtKB P61964?
Solution: 3–6
